The values you see were collected from patent US10851082B2.

SYSTEM: Mnk1 (Homo sapiens (Human), UniProt Q9BUB5)
ASSAY INFO: Mnk1 kinase inhibition, ADP-Glo ADP monitoring assay
Format: biochemical
CONDITION SUMMARY: read-out: Mnk1 IC50
Sequence (Q9BUB5 whole entry): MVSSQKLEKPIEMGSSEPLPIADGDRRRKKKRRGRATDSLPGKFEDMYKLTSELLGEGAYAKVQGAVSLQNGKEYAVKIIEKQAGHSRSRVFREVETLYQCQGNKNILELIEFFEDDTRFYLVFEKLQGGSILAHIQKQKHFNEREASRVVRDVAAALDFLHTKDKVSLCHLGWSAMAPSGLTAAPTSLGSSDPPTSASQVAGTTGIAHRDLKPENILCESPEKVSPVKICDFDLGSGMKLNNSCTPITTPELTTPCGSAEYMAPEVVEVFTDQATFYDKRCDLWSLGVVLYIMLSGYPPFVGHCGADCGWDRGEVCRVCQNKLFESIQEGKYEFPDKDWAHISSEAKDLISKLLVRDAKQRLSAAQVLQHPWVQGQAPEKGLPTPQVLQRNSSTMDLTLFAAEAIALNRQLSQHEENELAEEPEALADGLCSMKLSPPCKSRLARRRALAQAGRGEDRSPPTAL
pIC50: −log10 of the molar value.
pIC50 vs 6: at or above is MET, below is NOT MET.

                                   molecule  category_label
0  COc1cccc(-n2cc(-c3ccnc(Nc4ccncc4)n3)cn2)c1 [NUCC-0077168]         NOT MET
1  O=[N+]([O-])c1ccc(NCCNc2ccnc(-n3cnc4ccccc43)n2)nc1 [NUCC-0176366]         NOT MET
2  c1ccc2c(c1)ncn2-c1ccnc(Nc2ccc(-n3cccn3)cc2)n1 [NUCC-0125593]             MET
3  c1ccc2c(c1)ncn2-c1ccnc(Nc2ccc(N3CCCCC3)cc2)n1 [NUCC-0125588]             MET

Let's switch to this molecule now.
Dear colleague, could you confirm whether Clc1cnc(NCCc2cnc[nH]2)nc1-n1cnc2ccccc21 [NUCC-0175695] has pIC50 at or above 6?
MET

###

System: U937 cells
ASSAY INFO: Cell viability assay (CellTiter-Glo), U937
Type: cell-based
CONDITION SUMMARY: Homo sapiens, U-937, read-out: U937 viability EC50
Documented EC50 across a set of molecules
Give the quantity in µM, number only.

                                   molecule      system  units_symbol  assay_value
0  c1cncc(CCNc2ccnc(-n3cnc4ccccc43)n2)c1 [NUCC-0176341]  U937 cells            µM           13
1  O[C@H]1CC[C@H](Nc2nccc(-n3cnc4ccccc43)n2)C1 [NUCC-0176163]  U937 cells            µM          8.1

Let us move to another entry and its EC50.
Given the molecule O[C@@H]1CC[C@H](Nc2nccc(-n3cnc4ccccc43)n2)C1 [NUCC-0176144] , write its reported EC50.
5.7

###

Item-by-item account of pIC50
SYSTEM: Mnk1 (Homo sapiens (Human), UniProt Q9BUB5)
ASSAY INFO: Mnk1 kinase inhibition, ADP-Glo ADP monitoring assay
Assay type: biochemical
CONDITION SUMMARY: read-out: Mnk1 inhibition IC50 (+,++,+++)
pIC50: −log10 of the molar value.

>>> df
                                   molecule                                    system   assay_value
0  NC1CC(Oc2ncc(C(F)(F)F)c(-n3cnc4ccccc43)n2)C1 (stereo not shown) [NUCC-0201663]  Mnk1 (Homo sapiens (Human), UniProt Q9BUB5)        > 6.00
1  COc1ccc2c(c1)ncn2-c1nc(NCCc2ccncc2)ncc1Cl [NUCC-0200910]  Mnk1 (Homo sapiens (Human), UniProt Q9BUB5)        < 5.00
2  N#Cc1cn(-c2nc(OC3CC(N)C3)ncc2Cl)cn1 (stereo not shown) [NUCC-0201246]  Mnk1 (Homo sapiens (Human), UniProt Q9BUB5)  5.00 to 6.00
3  N#Cc1cnc(OCCc2ccccn2)nc1-n1cnc2ccccc21 [NUCC-0200790]  Mnk1 (Homo sapiens (Human), UniProt Q9BUB5)        > 6.00
4  c1ccc2c(c1)ncn2-c1nc(OC2CCNC2)ncc1-c1ccsc1 (stereo not shown) [NUCC-0201902]  Mnk1 (Homo sapiens (Human), UniProt Q9BUB5)        > 6.00
5  N#Cc1cnc(OCc2ccccn2)nc1-n1cnc2ccccc21 [NUCC-0200902]  Mnk1 (Homo sapiens (Human), UniProt Q9BUB5)        > 6.00
6  NC1CC(Oc2ncc(Cl)c(-n3cnc(-c4ccc(Cl)c(C(F)(F)F)c4)c3)n2)C1 (stereo not shown) [NUCC-0201247]  Mnk1 (Homo sapiens (Human), UniProt Q9BUB5)  5.00 to 6.00
7  N#Cc1cnc(OCCN2CCOCC2)nc1-n1cnc2ccccc21 [NUCC-0200791]  Mnk1 (Homo sapiens (Human), UniProt Q9BUB5)  5.00 to 6.00
8  NC1CC(Oc2ncc(Br)c(-n3cnc4ccccc43)n2)C1 (stereo not shown) [NUCC-0201893]  Mnk1 (Homo sapiens (Human), UniProt Q9BUB5)        > 6.00
9  Clc1cnc(CCc2ccccn2)nc1-n1cnc2ccccc21 [NUCC-0201706]  Mnk1 (Homo sapiens (Human), UniProt Q9BUB5)  5.00 to 6.00

Item N#Cc1cnc(OCCN2CCCC2=O)nc1-n1cnc2ccccc21 [NUCC-0200788] : provide pIC50
> 6.00

Specify pIC50 for NC1CC(Oc2ncc(C3CC3)c(-n3cnc4ccccc43)n2)C1 (stereo not shown) [NUCC-0201900] and stop.
> 6.00

Name the recorded pIC50 of the molecule listed here: N#Cc1cnc(OC2CCNC2)nc1-n1cnc2ccccc21 (stereo not shown) [NUCC-0200793]
> 6.00

Using the record for Clc1cccc(CCOc2ncc(Cl)c(-n3cnc4ccccc43)n2)n1 [NUCC-0201021] , state its measured pIC50.
> 6.00

Report measured pIC50; entry is O=[N+](O)c1ccc2c(c1)ncn2-c1nc(NCCc2ccncc2)ncc1Cl [NUCC-0200798]
< 5.00

Look up pIC50 of Clc1cnc(NC2C3CC2C3)nc1-n1cnc2ccccc21 (stereo not shown) [NUCC-0201136] and report it.
5.00 to 6.00

###

SYSTEM: Mnk1 (Homo sapiens (Human), UniProt Q9BUB5)
ASSAY INFO: Mnk1 kinase inhibition, ADP-Glo ADP monitoring assay
Type: biochemical
CONDITION SUMMARY: read-out: Mnk1 IC50
Items are presented alongside their recorded log10(IC50).
On a log10 scale: recorded IC50, unit µM.

>>> print(df.to_string())
                                   molecule  property_label  assay_value
0  CCn1cncc1CNc1nccc(-c2cnn(-c3cccc(OC)c3)c2)n1     log10(IC50)         1.00

Then there is this molecule:
Query log10(IC50) for `CNC(=O)c1ccc(Nc2nccc(-n3cnc4ccccc43)n2)cc1`
-0.70

###

SYSTEM: Mnk1 (Homo sapiens (Human), UniProt Q9BUB5)
ASSAY INFO: Cellular inhibition of Mnk1, flow cytometry of phospho-eIF-4E (Ser209), U937 cells
Assay type: cell-based
CONDITION SUMMARY: phospho-eIF-4E Ser209, flow cytometry, read-out: U937 pEIF4E IC50
Sequence (Q9BUB5 whole entry, looked up): as the sequence (Q9BUB5 whole entry) above
Parameter IC50: see the listing below.

                              record_smiles  property_label  assay_value
0  O[C@H]1CC[C@@H](Nc2nccc(-n3cnc4ccccc43)n2)C1            IC50        62 nM
1  O[C@@H]1CC[C@H](Nc2nccc(-n3cnc4ccccc43)n2)C1            IC50        78 nM
2  O[C@H]1CC[C@H](Nc2nccc(-n3cnc4ccccc43)n2)C1            IC50        75 nM

Write down measured IC50 (Mnk1 (Homo sapiens (Human), UniProt Q9BUB5)) for this compound. `c1cncc(CCNc2ccnc(-n3cnc4ccccc43)n2)c1`
42 nM

###

SYSTEM: Mnk2 (Homo sapiens (Human), UniProt Q9HBH9)
Sequence (Q9HBH9 whole entry): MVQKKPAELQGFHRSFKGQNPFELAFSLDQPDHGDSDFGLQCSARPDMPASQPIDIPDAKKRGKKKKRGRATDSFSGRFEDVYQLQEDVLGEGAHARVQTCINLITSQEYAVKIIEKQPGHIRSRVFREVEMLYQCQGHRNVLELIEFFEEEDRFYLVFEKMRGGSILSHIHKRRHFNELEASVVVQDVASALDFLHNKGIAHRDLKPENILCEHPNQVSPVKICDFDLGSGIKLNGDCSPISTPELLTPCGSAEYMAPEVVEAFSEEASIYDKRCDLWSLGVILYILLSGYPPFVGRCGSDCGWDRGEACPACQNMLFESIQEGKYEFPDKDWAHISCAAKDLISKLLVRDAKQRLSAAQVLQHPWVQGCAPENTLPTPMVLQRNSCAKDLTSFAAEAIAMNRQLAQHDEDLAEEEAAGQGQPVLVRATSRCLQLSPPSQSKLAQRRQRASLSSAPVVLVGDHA
ASSAY INFO: Mnk2 kinase inhibition, ADP-Glo ADP monitoring assay
Type: biochemical
CONDITION SUMMARY: ADP-Glo kinase assay; read-out: Mnk2 IC50
PROPERTY LABEL: IC50 (nM)
Form entry: value (nM) — number only.

For the molecule c1cc(CCNc2nccc(-n3cnc4cnccc43)n2)ccn1 [NUCC-0176143] , report IC50.
1100

Answer with the recorded IC50 of O[C@H]1CC[C@@H](Nc2nccc(-n3cnc4ccccc43)n2)C1 [NUCC-0176164] only.
26

Note down IC50 recorded for O=[N+]([O-])c1ccc(NCCNc2ccnc(-n3cnc4ccccc43)n2)nc1 [NUCC-0176366]
2500

Please indicate IC50 recorded for O[C@H]1CC[C@H](Nc2nccc(-n3cnc4ccccc43)n2)C1 [NUCC-0176163]
41

Hello, please tell me recorded IC50 for this one: OCCNc1nccc(-n2cnc3ccccc32)n1 [NUCC-0176352]
170

Return value of IC50 for input c1ccc2c(c1)ncn2-c1ccnc(Nc2ccc(-n3cccn3)cc2)n1 [NUCC-0125593] , no commentary.
39

Using the record for O[C@@H]1CC[C@H](Nc2nccc(-n3cnc4ccccc43)n2)C1 [NUCC-0176144] , state its measured IC50.
28

Specify IC50 for c1ccc2c(c1)ncn2-c1ccnc(NC2CCCOC2)n1 (stereo not shown) [NUCC-0176151] and stop.
44

Output measured IC50 for this item: O=c1oc2ccccc2n1-c1ccnc(NCCc2ccncc2)n1 [NUCC-0176353]
6800

Supply reported IC50 belonging to this molecule: Clc1cnc(NCCc2cnc[nH]2)nc1-n1cnc2ccccc21 [NUCC-0175695]
72

# return recorded IC50 for entry OC1CCCC1Nc1nccc(-n2cnc3ccccc32)n1 (stereo not shown) [NUCC-0176147]
82
